Test system: human TH17 cells
Assay: Inhibition of IL-17 release from human TH17 cells
Assay type: cell-based
Settings: Homo sapiens, 96 h, isolated human TH17 cells, 4 days culture, IL-17A by HTRF; read-out: pIC50 IL-17 release (converted)
Would you mind telling me the reported IC50 of each entry?
Give bare numbers, in nM.

The examples below pair each entry with its known result.
O=C(Nc1ccc(C(O)(C(F)(F)F)C(F)(F)F)cc1)C1NCc2cc(S(=O)(=O)CC3CC3)ccc21 (centres unmarked) ... 31.6
O=C(Nc1ccc(C(O)(C(F)(F)F)C(F)(F)F)cc1)C1c2ccc(S(=O)(=O)CC3CC3)cc2CN1C(=O)C1CCCO1 (centres unmarked) ... 20

State the recorded IC50 for every item in the following list.
1. CC[C@@H](O)C(=O)N1Cc2cc(S(C)(=O)=O)ccc2C1C(=O)Nc1ccc(C(O)(C(F)(F)F)C(F)(F)F)cc1 (single isomer, unassigned) [Example 409, isomer 1]
2. CC(=O)N1Cc2cc(S(=O)(=O)CC(C)O)ccc2C1C(=O)Nc1ccc(C(O)(C(F)(F)F)C(F)(F)F)cc1 (centres unmarked)
3. COC1(CC(=O)N2Cc3cc(S(=O)(=O)CC4CC4)ccc3C2C(=O)Nc2ccc(C(O)(C(F)(F)F)C(F)(F)F)cc2)CC1 (centres unmarked)
4. CC(=O)N1Cc2cc(S(C)(=O)=O)ccc2C1C(=O)Nc1ccc(C(O)(C(F)(F)F)C(F)(F)F)c(F)c1 (centres unmarked)
5. CCS(=O)(=O)c1ccc2c(c1)CN(C(=O)C1(C#N)CC1)C2C(=O)Nc1ccc(C(O)(C(F)(F)F)C(F)(F)F)cc1 (centres unmarked)
6. COCCS(=O)(=O)c1ccc2c(c1)CN(C=O)C2C(=O)Nc1ccc(C(O)(C(F)(F)F)C(F)(F)F)cc1 (centres unmarked)
7. CCS(=O)(=O)c1ccc2c(c1)CNC2C(=O)Nc1ccc(C(O)(C(F)(F)F)C(F)(F)F)cc1 (centres unmarked)
8. COC1(C(=O)N2Cc3cc(S(=O)(=O)CC4CC4)ccc3C2C(=O)Nc2ccc(C(O)(C(F)(F)F)C(F)(F)F)cc2)CC1 (centres unmarked)

## Result
1: 63.1; 2: 158; 3: 15.8; 4: 20; 5: 20; 6: 15.8; 7: 39.8; 8: 15.8
